FYI, the data here is from patent US20220033484A1.

Each entry below lists one item and its recorded koff value.
Target: T1, cTnI quality control product recombinant protein (human, UniProt P19429 2-210, limits assumed)
T1 construct: treated as the same molecule; also called cTnI antigen; cardiac troponin I
T1 sequence (P19429 2-210 limits assumed): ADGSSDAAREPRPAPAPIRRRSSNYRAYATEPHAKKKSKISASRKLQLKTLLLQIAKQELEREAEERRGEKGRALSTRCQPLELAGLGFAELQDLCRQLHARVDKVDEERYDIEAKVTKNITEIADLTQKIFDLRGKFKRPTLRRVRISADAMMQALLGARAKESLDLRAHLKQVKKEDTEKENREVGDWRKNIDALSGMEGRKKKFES
Assay: AMC sensor, antibody immobilised, cTnI in solution
API: value field is a number in s⁻¹; no unit string.

Binder: WT 1-51 (antibody, V domains shown, Heavy chain built as m63) VH: EVQLQQSGPELVKPGASVKMSCKASGYSFTIYVVHWVKQKPGQGLEWIGYIQPYIDGTRYNEKFKGKATLTVDKSSSTAFMELSSLTSEDSAVYYCARTGYGQYGLAWLAYWGQGTLVTVSA VL: QAVVIQESALTTSPGETVTLTCRSSSGAATTSQYANWVQEKPDHLFTGLIGGSNNRAPGVPARFSGSLIGDKAALTITGAQTEDEAIYFCAIVYSNHWVFGGGTKLTVLG
Unit of measurement: s⁻¹
koff: 0.000527

Binder: Mutation 1-10 (antibody, V domains shown, Built as m8) VH: EVQLQQSGPELVKPGASVKMSCKASGYTFTLYVLHWVKQKPGQGLEWIGYIQPYLDGTKYNEKFKGKATLTVDKSSSTAFMELSSLTSEDSAVYYCARSGYGNYGLAWLAYWGQGTLVTVSA VL: QAVVIQESALTTSPGETVTLTCRSSTGAVTTSQYANWVQEKPDHLFTGLIGGSNNRAPGVPARFSGSLIGDKAALTITGAQTEDEAIYFCALVYSNQWVFGGGTKLTVLG
Unit of measurement: s⁻¹
koff: 4.12e-05

Binder: Mutation 1-44 (antibody, V domains shown, Built as m8) VH: EVQLQQSGPELVKPGASVKMSCKASGYTFTIYVIHWVKQKPGQGLEWIGYIQPYIDGTKYNEKFKGKATLTVDKSSSTAFMELSSLTSEDSAVYYCARSGYGGYGLAWLAYWGQGTLVTVSA VL: QAVVIQESALTTSPGETVTLTCRSSTGAATTSNYANWVQEKPDHLFTGLIGGSNNRAPGVPARFSGSLIGDKAALTITGAQTEDEAIYFCALVYSNNWVFGGGTKLTVLG
Unit of measurement: s⁻¹
koff: 0.000205

Binder: Mutation 1-27 (antibody, V domains shown, Built as m8) VH: EVQLQQSGPELVKPGASVKMSCKASGYTFTLYVVHWVKQKPGQGLEWIGYIYPYLDGTKYNEKFKGKATLTVDKSSSTAFMELSSLTSEDSAVYYCARSGYGQYGLAWLAYWGQGTLVTVSA VL: QAVVIQESALTTSPGETVTLTCRSSTGAVTTSNYANWVQEKPDHLFTGLIGGSQNRAPGVPARFSGSLIGDKAALTITGAQTEDEAIYFCALVYSNHWVFGGGTKLTVLG
Unit of measurement: s⁻¹
koff: 7.31e-06

Please find the next binder below.
Request: // lookup koff for Mutation 1-41 (antibody, V domains shown, Built as m8) VH: EVQLQQSGPELVKPGASVKMSCKASGYTFTLYVIHWVKQKPGQGLEWIGYINPYIDGTKYNEKFKGKATLTVDKSSSTAFMELSSLTSEDSAVYYCARSGYGNYGLAWLAYWGQGTLVTVSA VL: QAVVIQESALTTSPGETVTLTCRSSTGAVTTSNYANWVQEKPDHLFTGLIGGSQNRAPGVPARFSGSLIGDKAALTITGAQTEDEAIYFCALVYSNQWVFGGGTKLTVLG
Result: 0.000647
